These entries and their values trace back to ChEMBL document CHEMBL1125042.

Kindly state Activity for each of the entries shown.
- Tested on: Rattus norvegicus
- methodDescription: Tested for hypolipidemic activity in male rats, cholesterol was determined in serum at 50 mg/kg
- Assay type: functional
Give bare numbers, in %.

Examples from the recorded data:
compound	Activity, %
COC1/C=C/OC2(C)Oc3c(C)c(O)c4c(O)c(c(N5CCNCC5C(=O)O)c(O)c4c3C2=O)NC(=O)/C(C)=C\C=C\C(C)C(O)C(C)C(O)C(C)C(OC(C)=O)C1C (stereo not given)	-2
COC1/C=C/OC2(C)Oc3c(C)c(O)c4c(O)c(c(C=NN5CCN(Cc6c(C)cc(C)cc6C)CC5)c(O)c4c3C2=O)NC(=O)/C(C)=C\C=C\C(C)C(O)C(C)C(O)C(C)C(OC(C)=O)C1C (stereo not given)	-81
COC1/C=C/OC2(C)Oc3c(C)c(O)c4c(O)c(c(C=NN5CCN(Cc6cccc7ccccc67)CC5)c(O)c4c3C2=O)NC(=O)/C(C)=C\C=C\C(C)C(O)C(C)C(O)C(C)C(OC(C)=O)C1C (stereo not given)	-69

Fill in Activity for each of the 2 compounds listed.
1. COC1/C=C/OC2(C)Oc3c(C)c(O)c4c(O)c(c5[nH]c(N6CCN(Cc7ccccc7)CC6)nc5c4c3C2=O)NC(=O)/C(C)=C\C=C\C(C)C(O)C(C)C(O)C(C)C(OC(C)=O)C1C (stereo not given)
2. COC1/C=C/OC2(C)Oc3c(C)c(O)c4c(=O)c(c5oc6cc(C)ccc6nc-5c4c3C2=O)NC(=O)/C(C)=C\C=C\C(C)C(O)C(C)C(O)C(C)C(OC(C)=O)C1C (stereo not given)

1. -27
2. -14
